Ref: patent US10294227B2

# Assay System: LYN (Homo sapiens (Human), UniProt P07948)
# Sequence (P07948 whole entry): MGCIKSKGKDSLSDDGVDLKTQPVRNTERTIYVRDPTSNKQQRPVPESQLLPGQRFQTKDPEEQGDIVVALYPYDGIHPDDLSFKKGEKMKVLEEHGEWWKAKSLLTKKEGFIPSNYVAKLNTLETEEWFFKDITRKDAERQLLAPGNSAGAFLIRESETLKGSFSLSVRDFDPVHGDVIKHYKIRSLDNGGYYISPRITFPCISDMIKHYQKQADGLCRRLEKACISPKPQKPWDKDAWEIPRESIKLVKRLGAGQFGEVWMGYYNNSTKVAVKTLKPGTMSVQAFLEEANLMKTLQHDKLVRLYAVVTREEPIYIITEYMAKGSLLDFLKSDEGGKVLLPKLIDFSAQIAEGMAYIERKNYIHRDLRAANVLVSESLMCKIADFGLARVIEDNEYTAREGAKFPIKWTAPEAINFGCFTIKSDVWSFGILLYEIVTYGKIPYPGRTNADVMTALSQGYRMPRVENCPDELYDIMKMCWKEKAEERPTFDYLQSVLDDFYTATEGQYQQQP
# Test Method Notes: Kinase screening assay (IC50)
# Test Parameters: read-out: Target inhibition (IC50) LYN; 10 μM ATP
pIC50: −log10 of the molar value.
Give pIC50 for every item shown.

Solved cases below.
COc1cc(-c2nn(CCN3CCC(N4CCCCC4)CC3)c3ncnc(N)c23)ccc1NC(=O)OC(C)(C)C | > 8.00
Cc1ccc(-c2nn(CCN3CCN(C)CC3)c3ncnc(N)c23)cc1 | < 6.00
CN(C)C1CCN(CCn2nc(-c3ccc(CC(=O)OC(C)(C)C)cc3)c3c(N)ncnc32)CC1 | > 8.00
Cc1ccc(-c2nn(CCN3CCC(CCN(C)C)CC3)c3ncnc(N)c23)cc1 | < 6.00

Kindly consider the entry below.
Req: State its pIC50: `COc1cc(-c2nn(CCN3CCC(N(C)C)CC3)c3ncnc(N)c23)ccc1NCc1ccccc1`
Resp: > 8.00

###

# Test Method Notes: in vivo
# Test Parameters: female, mouse
Readout Name: half-life (h)
Answers are plain numbers, in h.

Req: Identify measured half-life corresponding to `COc1cc(-c2nn(CCN3CCC(N(C)C)CC3)c3ncnc(N)c23)ccc1CC(=O)OC(C)(C)C`
Resp: 2

###

# Assay System: YES (Homo sapiens (Human), UniProt P07947)
# Sequence (P07947 whole entry): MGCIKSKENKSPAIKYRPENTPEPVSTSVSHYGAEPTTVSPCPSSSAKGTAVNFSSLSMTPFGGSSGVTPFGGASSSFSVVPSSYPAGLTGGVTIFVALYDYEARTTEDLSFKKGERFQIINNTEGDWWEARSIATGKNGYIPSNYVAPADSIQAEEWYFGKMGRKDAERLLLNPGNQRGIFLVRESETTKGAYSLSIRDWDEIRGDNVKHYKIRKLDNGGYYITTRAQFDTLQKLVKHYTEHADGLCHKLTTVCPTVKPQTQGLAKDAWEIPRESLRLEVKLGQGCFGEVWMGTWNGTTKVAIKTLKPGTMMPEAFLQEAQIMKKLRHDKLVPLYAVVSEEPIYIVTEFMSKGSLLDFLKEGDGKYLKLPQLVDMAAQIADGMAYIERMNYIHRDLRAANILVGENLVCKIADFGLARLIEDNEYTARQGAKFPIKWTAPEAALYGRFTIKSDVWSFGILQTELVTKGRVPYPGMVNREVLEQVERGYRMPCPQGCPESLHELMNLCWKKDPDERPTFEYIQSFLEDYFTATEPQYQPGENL
# Test Method Notes: Kinase screening assay (IC50)
# Test Parameters: read-out: Kinase Screening (IC50) YES; Src Family
Readout Name: IC50

Req: Using the record for `COc1cc(-c2nn(CCN3CCC(N4CCCC4)CC3)c3ncnc(N)c23)ccc1NC(=O)OC(C)(C)C` , state its measured IC50.
Resp: < 10 nM

###

# Test Parameters: rat, serum
Readout Name: fraction unbound
Answers are plain numbers.

COc1cc(-c2nn(CCN3CCC(N(C)C)CC3)c3ncnc(N)c23)ccc1NCc1ccccc1 | 0.106

Provide reported fraction unbound for each item, in the same order as listed.
1. COc1cc(-c2nn(CCN3CCC(N4CCCCC4)CC3)c3ncnc(N)c23)ccc1NC(=O)OC(C)(C)C
2. COc1cc(-c2nn(CCN3CCC(N(C)C)CC3)c3ncnc(N)c23)ccc1CC(=O)OC(C)(C)C
3. COc1cc(-c2nn(CCN3CCC(N4CCCC4)CC3)c3ncnc(N)c23)ccc1NC(=O)OC(C)(C)C

Resp:
0.106
0.139
0.134

###

# Assay System: FRK/PTK5 (Homo sapiens (Human), UniProt P42685)
# Sequence (P42685 whole entry): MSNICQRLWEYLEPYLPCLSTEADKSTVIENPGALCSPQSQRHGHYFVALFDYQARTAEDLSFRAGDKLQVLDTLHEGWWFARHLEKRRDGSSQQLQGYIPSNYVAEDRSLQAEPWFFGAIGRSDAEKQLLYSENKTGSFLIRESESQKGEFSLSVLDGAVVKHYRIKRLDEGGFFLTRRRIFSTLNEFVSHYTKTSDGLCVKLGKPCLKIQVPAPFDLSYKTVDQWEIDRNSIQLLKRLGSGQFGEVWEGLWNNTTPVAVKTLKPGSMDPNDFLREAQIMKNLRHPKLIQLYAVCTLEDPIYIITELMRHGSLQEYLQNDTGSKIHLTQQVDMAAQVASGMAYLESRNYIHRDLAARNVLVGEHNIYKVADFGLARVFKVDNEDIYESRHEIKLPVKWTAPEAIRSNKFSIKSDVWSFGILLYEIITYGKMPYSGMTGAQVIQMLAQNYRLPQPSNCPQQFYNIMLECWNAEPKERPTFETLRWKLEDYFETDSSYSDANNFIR
# Test Method Notes: Kinase screening assay (IC50)
# Test Parameters: read-out: Target inhibition (IC50) FRK/PTK5; 10 μM ATP
pIC50: −log10 of the molar value.
Task for the reader: assign each of the following compounds its reported pIC50.

Please give pIC50, item by item, for the list that follows.
1. COc1cc(-c2nn(CCN3CCC(N(C)C)CC3)c3ncnc(N)c23)ccc1NC(=O)CC(C)(C)C
2. COc1cc(-c2nn(CCN3CCC(N(C)C)CC3)c3ncnc(N)c23)ccc1CC(=O)OC(C)(C)C
3. COc1cc(-c2nn(CCN3CCC(N4CCCCC4)CC3)c3ncnc(N)c23)ccc1NC(=O)OC(C)(C)C
4. COc1cc(-c2nn(CCN3CCC(N(C)C)CC3)c3ncnc(N)c23)ccc1NC(=O)NC(C)(C)C

Resp:
< 6.00
> 8.00
> 8.00
< 6.00

Hi team, please reply with pIC50 for each item in this list.
1. Cc1ccc(-c2nn(CCN3CCN(C)CC3)c3ncnc(N)c23)cc1
2. COc1cc(-c2nn(CCN3CCC(N4CCCC4)CC3)c3ncnc(N)c23)ccc1NC(=O)OC(C)(C)C
3. Cc1ccc(-c2nn(CCN3CCN(CCN(C)C)CC3)c3ncnc(N)c23)cc1

Resp:
1: < 6.00; 2: > 8.00; 3: < 6.00

Please go through the list and note pIC50 for each compound.
1. COc1cc(-c2nn(CCN3CCC(CN(C)C)CC3)c3ncnc(N)c23)ccc1NC(=O)OC(C)(C)C
2. Cc1ccc(-c2nn(CCN3CCC(CN(C)C)CC3)c3ncnc(N)c23)cc1
3. Cc1ccc(-c2nn(CCN3CCC(CCN(C)C)CC3)c3ncnc(N)c23)cc1

Resp:
1. > 8.00
2. < 6.00
3. < 6.00
